// provenance: PubChem BioAssay (NCI)

- System: HT29 colon
- EXPERIMENT DESCRIPTION: NCI-60 one-dose screen, 48 h (100 = growth as untreated, 0 = no growth, -100 = all killed)
- CONDITION SET: 10 µM unless noted
The panel holds about 83,000 compounds, 20% with a hit somewhere; the sample as a whole holds those more often. Calls of active or inactive are those of the source. How the source made its calls: active means growth percent below 10; inactive means the rest.
PARAMETER: growth

Could you share which growth value was measured for "Cc1ccc(/C=C2\COc3ccc(O)c(O)c3C2=O)cc1" ? 12.9% (inactive)

Could you share which growth value was measured for "COc1cc(Cl)cc(-c2nn(C(=O)NS(=O)(=O)c3ccc(Cl)cc3)cc2-c2ccncc2)c1" ? 30.8% (inactive)

Could you share which growth value was measured for "Clc1ccc(Nc2nc(Nc3ccc(Cl)cc3)nc(Nc3ccc(-c4cc(-c5cccc(Cl)c5)on4)cc3)n2)cc1" ? 105% (inactive)

Could you share which growth value was measured for "N#Cc1c(-c2cccc(F)c2)cc(-c2cccnc2)[nH]c1=O" ? 104% (inactive)

Could you share which growth value was measured for "CCc1c2c(nc3ccc(OCc4ccc(B5OC(C)(C)C(C)(C)O5)cc4)cc13)-c1cc3c(c(=O)n1C2)COC(=O)[C@]3(O)CC" ? 10.2% (inactive)

Could you share which growth value was measured for "c1ccc(Cc2cccc[n+]2C(c2ccccc2)c2ccccc2)cc1" ? 31.8% (inactive)

Could you share which growth value was measured for "O=C(NNc1ccccc1)c1ncc[nH]1" ? 54.9% (inactive)

Could you share which growth value was measured for "Cc1ccc(Cc2cnc(NC(=O)c3cc(C)oc3C)s2)cc1" ? 51.3% (inactive)

Could you share which growth value was measured for O=C1OCC2=C1C(c1cccc(C(F)(F)F)c1)c1cc3c(cc1N2CCO)CCC3 (configuration not stated) ? 1.24% (active)

Could you share which growth value was measured for "C=C(C)[C@@H]1CC[C@]2(C)[C@H](CC(=O)N[C@H]3[C@@H]4C[C@](C)(C(=O)OC)CC[C@]4(C)CC[C@]32C)[C@@]1(C)CCC#N" ? 70.9% (inactive)

Could you share which growth value was measured for CN(Cc1ccccc1)c1nc(Cl)c(C2CC(c3ccc4c(c3)OCO4)=NN2c2cc(Cl)cc(Cl)c2)s1 (configuration not stated) ? 97.8% (inactive)

Could you share which growth value was measured for "Nc1[nH]nc(Nc2ccccc2)c1-c1nc2ccccc2s1" ? 58.5% (inactive)

Could you share which growth value was measured for "O=[N+]([O-])c1ccc2[nH]c3nccc(NCc4cccc(Cl)c4)c3c2c1" ? 76.3% (inactive)

Could you share which growth value was measured for "CC1=CC(C)(C)NC(=S)N1c1ccc(Cl)cc1" ? 103% (inactive)

Could you share which growth value was measured for "NC(=O)c1c(NC(=O)/C=C/c2cccs2)sc2c1CCC(=O)C2" ? 15.8% (inactive)

Could you share which growth value was measured for CCN1C(=O)N(c2ccccc2)C2NC(=S)N(/N=C/C=C/c3ccccc3)C21 (configuration not stated) ? 4.84% (active)

Could you share which growth value was measured for "Cc1ccc(-c2nc3nc(-c4ccc(Br)cc4)nc(N4CCCNCC4)c3o2)cc1" ? -85.3% (active)

Could you share which growth value was measured for "Cc1ccc(C(=O)Nc2nc3c(s2)CN(Cc2ccccc2)CC3)cn1" ? 59.1% (inactive)

Could you share which growth value was measured for "Cc1cccc(-c2nnc(SCC(=O)Nc3ncc(Cc4ccccc4)s3)n2N2C(=O)CSC2=S)c1" ? 81.2% (inactive)

Could you share which growth value was measured for "COc1ccc(/C=C2\COc3ccc(O)c(O)c3C2=O)c(OC)c1OC" ? 44.7% (inactive)

Could you share which growth value was measured for "Clc1nccc2c(-c3csc(-c4c[nH]c5ccc(Br)cc45)n3)c[nH]c12" ? 5.95% (active)

Could you share which growth value was measured for "COc1ccc(-c2[nH]c3ccccc3c2-c2ccc(OC)cc2)cc1" ? 29.8% (inactive)
